system-under-test: T1, MdWRKY70L (Malus domestica, UniProt A0A7S5EAY7 1-303)
T1 sequence: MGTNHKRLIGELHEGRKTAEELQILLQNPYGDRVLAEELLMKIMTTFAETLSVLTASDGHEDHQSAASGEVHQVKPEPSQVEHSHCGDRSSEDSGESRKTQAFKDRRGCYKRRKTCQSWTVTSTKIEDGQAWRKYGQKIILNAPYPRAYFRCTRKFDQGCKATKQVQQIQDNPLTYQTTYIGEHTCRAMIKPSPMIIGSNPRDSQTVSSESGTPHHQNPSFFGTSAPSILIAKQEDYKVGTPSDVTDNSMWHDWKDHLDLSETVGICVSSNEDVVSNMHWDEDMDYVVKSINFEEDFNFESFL
experiment-summary: EMSA; LightShift Chemiluminescent EMSA kit (Thermo); buffer, salt, pH and temperature not stated
run-parameters: protein: recombinant; tags: GST (Results); His (EMSA Methods, pET32a); label: 3' biotin, both strands; blunt

{"columns": ["binder", "binding result"],
 "data": [
  ["MdZAT12 W-box hot probe (dsDNA) DNA 1: CATTGATCTGGATTTCTGTGCTGACTCAGACTCATCGTGGATGCTT DNA 2: AAGCATCCACGATGAGTCTGAGTCAGCACAGAAATCCAGATCAATG", "binds"],
  ["MdSAG101 W-box mutant probe (dsDNA) DNA 1: TCTATATAAAGAGAGACATATCGGCTATTCCGGTATCCTCTTCTCT DNA 2: AGAGAAGAGGATACCGGAATAGCCGATATGTCTCTCTTTATATAGA", "no binding"],
  ["MdSAG101 W-box hot probe (dsDNA) DNA 1: TCTATATAAAGAGAGACATATTGACCATTCCGGTATCCTCTTCTCT DNA 2: AGAGAAGAGGATACCGGAATGGTCAATATGTCTCTCTTTATATAGA", "binds"],
  ["MdZAT12 W-box mutant probe (dsDNA) DNA 1: CATTGATCTGGATTTCTGTGCGGCCGCAGACTCATCGTGGATGCTT DNA 2: AAGCATCCACGATGAGTCTGCGGCCGCACAGAAATCCAGATCAATG", "no binding"]
]}
